- Test system: Cortical neurone
- assay-procedure: Neuroprotective activity against NMDA-induced excitotoxic cell death in C57BL/6 mouse primary cortical neurons assessed as cell viability at 10 uM by CCK8 assay (reference value: 16.31 +/- 3.19 %)
- Assay type: functional
- details: C57BL/6, Cortical neurone, read-out: Activity
The label Yes is reserved for viability at 10 µM strictly under 40%; No covers values equal to or above it.

// query Consider CCN(CCN)Cc1c(F)ccc(Br)c1F . Does its viability at 10 µM lie strictly below 40%?
// result No

// query Lab note: viability at 10 µM threshold 40%. Does this molecule come in strictly under it? CCN(CCN)Cc1cccc(Br)c1F
// result No

// query hey, is viability at 10 µM for NC1CCN(Cc2cccc(Br)c2)C1 (stereo unspecified) lower than 40% or not?
// result Yes

// query Is viability at 10 µM of CCN(CCN)Cc1cc(F)cc(C#N)c1 strictly below 40%?
// result Yes

// query Bench note: check whether CCN(CCN)Cc1cc(C#N)ccc1Br shows viability at 10 µM below 40%
// result No

// query # strict comparison: is reported viability at 10 µM < 40%? input = CCN(CCN)Cc1cccc(C#N)c1Cl
// result No

// query Is 40% strictly greater than the molecule's reported viability at 10 µM? molecule: CCN(CCN)Cc1cc(F)cc(Br)c1
// result Yes

// query Dear reviewer, please state whether CCN(CCN)Cc1cccc(-c2ccccc2)c1 has viability at 10 µM strictly beneath 40%.
// result Yes

// query Strictly below 40%: is that where viability at 10 µM of CCN(CCN)Cc1ccc(F)c(C#N)c1 sits?
// result Yes

// query Given the entry CCN(CCN(C)C)Cc1cccc(Br)c1 , would its reported viability at 10 µM be below 40%?
// result Yes

// query Is the reported viability at 10 µM for CCN(CCN)Cc1cccc(Cl)c1 strictly below 40%?
// result No

// query Please check: viability at 10 µM for CCN(CCN)Cc1cc(C#N)ccc1I , strictly under 40% or not?
// result No

// query For this molecule, is viability at 10 µM lower than 40%? CCN(CCN)Cc1cc(C#N)ccc1F
// result No

// query Is viability at 10 µM of CCN(CCN)Cc1cccc(C#N)c1 strictly below 40%?
// result No

// query In plain terms, does CCN(CCN)C(C)(C)c1cccc(Br)c1 come in under 40% for viability at 10 µM?
// result No

// query Quick check: does NC1CCCN(Cc2cccc(Br)c2)C1 (stereo unspecified) have viability at 10 µM under 40%?
// result Yes

// query Hello, I'm reviewing records and need to know if viability at 10 µM of CCN(CCN)C(C)c1cccc(C#N)c1Cl (stereo unspecified) is below 40%. Could you check?
// result No

// query Problem: For the molecule CCN(CCN)Cc1cccc(C#N)c1Br , is viability at 10 µM under 40%?
// result No

// query Field: below-cutoff. Rule: recorded viability at 10 µM strictly less than 40%. Subject: CCN(CCN)C(C)c1cccc(Br)c1 (stereo unspecified)
// result No

// query Criterion: viability at 10 µM strictly below 40%. Is it met by CCN(CCN)Cc1cc(C#N)ccc1Cl ?
// result No

// query Problem: For the molecule CCN(CCN)Cc1c(Cl)ccc(C#N)c1F , is viability at 10 µM under 40%?
// result No

// query Record CCN(CCN)Cc1ccc(Cl)c(C#N)c1 : is its viability at 10 µM strictly below 40%?
// result Yes

// query Say whether its viability at 10 µM is strictly beneath 40%. Entry: CCN(CCN)Cc1cc(Br)ccc1Cl
// result No

// query Quick check: viability at 10 µM of CCN(CCN)C(C)c1cc(C#N)ccc1Cl (stereo unspecified) under 40%?
// result No

// query Given the entry CCN(CCN)Cc1cc(Br)ccc1Br , would its reported viability at 10 µM be below 40%?
// result No

// query API: query returns whether the molecule falls strictly under 40% in viability at 10 µM. Query: CCN(CCN)Cc1c(F)ccc(C#N)c1Cl
// result No

// query Is viability at 10 µM of CCN(CCN)Cc1cccc(I)c1 strictly below 40%?
// result No

// query Check if viability at 10 µM falls below 40% for CCN(CCN)C(C)c1cc(Br)ccc1Br (stereo unspecified) .
// result No

// query Please check: viability at 10 µM for CCN(CCN)C(C)c1c(F)ccc(Br)c1F (stereo unspecified) , strictly under 40% or not?
// result No
